- Tested on: EKVX NSCLC
- protocol.description: NCI tumour cell line growth inhibition, 48 h
endpoint.name: TGI

| compound | assayed.system | TGI |
| --- | --- | --- |
| c1ccc(/N=N\Nc2ccc(-c3nc4ccccc4o3)cc2)nc1 | EKVX NSCLC | 88.2 µM |

Can you share its TGI? I mean this compound: NC(CCCCN=Cc1nc(-c2ccccc2)oc1O)C(=O)O (stereo unspecified)
> 100 µM

---

Recorded TGI values for a group of compounds are listed next.
- Test system: SR leukemia
- protocol.description: NCI tumour cell line growth inhibition, 48 h

Check out these entries, answers already filled in.
| compound | TGI |
| --- | --- |
| O=c1oc2cccnc2n1CCN1CCN(c2ccc(Oc3ccccc3)cc2)CC1 | > 100 µM |
| CC1(C)O[C@H]2[C@@H]3N=C(c4ccccc4)O[C@@H]3C=C[C@H]2O1 | > 100 µM |
| COc1ccc2c(c1)O[C@H]1c3ccc(O)cc3OC[C@@H]21 | 43.7 µM |
| O=C(CC/C(CC(=O)c1ccc(Cl)cc1)=N/O)Nc1ccc(Cl)c(Cl)c1 | > 100 µM |
| CCOC(=O)C1(C(=O)OCC)CSC1 | > 100 µM |

Can you share its TGI? I mean this compound: CC(=O)O[C@H]1[C@@H](OC2CCCC2(c2ccccc2)c2ccccc2)O[N+]([O-])=C[C@@]12COCc1cc3c(cc12)OCO3 (some centres not stated)
> 23.6 µM

Can you share its TGI? I mean this compound: O=c1[nH]cc(N(CCCl)CCCl)c(=O)[nH]1
55.1 µM

Can you share its TGI? I mean this compound: CC(C)C(Sc1nc(-c2ccccc2)c(-c2ccccc2)[nH]1)C(=O)N/N=C/c1ccc([N+](=O)[O-])cc1 (configuration not stated)
33.6 µM

Can you share its TGI? I mean this compound: CNc1cccnc1/C=N/NC(N)=S
> 10 µM

Can you share its TGI? I mean this compound: O=c1[nH]c(=O)n(C2OC(CO)C(O)C2O)cc1OCCc1ccccc1 (configuration not stated)
> 100 µM

Can you share its TGI? I mean this compound: O=C1c2ccccc2C(=O)C2C3c4ccccc4C(c4ccccc43)C12 (configuration not stated)
30.5 µM

Can you share its TGI? I mean this compound: Cc1nn(-c2ccccc2)c2c1C(c1cc3ccccc3nc1Cl)NC(=S)N2 (configuration not stated)
> 100 µM

Can you share its TGI? I mean this compound: Cc1cc(NCCCCNc2ccnc3cc(Cl)ccc23)nc(Nc2ccc(C(=O)N3CCCC3)cc2)n1
1.37 µM

Can you share its TGI? I mean this compound: Oc1ccccc1Nc1nc2ccccc2c2occc12
> 100 µM

Can you share its TGI? I mean this compound: NC(CCCNc1cccc(O)c1)C(=O)O (configuration not stated)
> 100 µM

Can you share its TGI? I mean this compound: COc1cc(C(=O)/C=C/c2c(-c3ccc(F)cc3)nc3ncccn23)cc(OC)c1OC
> 100 µM

Can you share its TGI? I mean this compound: Cn1cnc([N+](=O)[O-])c1SC1=NCCS1
> 100 µM

Can you share its TGI? I mean this compound: Fc1ccc(NCn2nc(COc3ccccc3Cl)n(/N=C/c3ccc(-c4ccc(Cl)cc4Cl)o3)c2=S)cc1Cl
36.8 µM

Can you share its TGI? I mean this compound: O=c1c[n+](-c2ccccc2)[nH]o1
> 100 µM

Can you share its TGI? I mean this compound: COc1cc(Nc2ncc3c(C)nc(-c4cccc(Oc5ccccc5)c4)n3n2)cc(OC)c1OC
> 21.4 µM

Can you share its TGI? I mean this compound: COc1ccc(N(C)c2nc(Cl)nc3ccn(C)c23)cc1
> 100 µM

Can you share its TGI? I mean this compound: CCN(CC)CCCNc1nc2ccccc2c2c(=O)c3cc(Cl)ccc3sc12
> 100 µM
